target: human CMV DNA polymerase UL54 (Human cytomegalovirus (strain AD169) (HHV-5) (Human herpesvirus 5), UniProt P08546); assay: CMV polymerase biochemical assay (molecular beacon-based)
readout type: pIC50
Kindly note that pIC50 refers to -log10 of the concentration in mol/L and answer with the value alone.

// below: answered compounds
Data request: Any idea what its pIC50 is? The compound is "CS(=O)(=O)N1CCC[C@H]1CN1CCn2c(ccc(C(=O)NCc3ccc(Cl)cc3)c2=O)C1=O"
Data returned: 5.85

Data request: Any idea what its pIC50 is? The compound is "CN(CCN1CCn2c(ccc(C(=O)NCc3ccc(Cl)cc3)c2=O)C1=O)C(=O)OC(C)(C)C"
Data returned: 6.53

Data request: What value of pIC50 has been reported for the following compound? "CNc1cc(CNC(=O)c2ccc3n(c2=O)CCN(CC2(S(=O)(=O)C4CC4)CC2)C3=O)ccc1C#N"
Data returned: 9.22

Data request: Query (compound): "O=C(NCc1ccc(Cl)cc1)c1ccc2n(c1=O)CCN(CC1(S(=O)(=O)C3CC3)CC1)C2=O" ; field requested: pIC50
Data returned: 9.70

Data request: Look up pIC50: "O=C(NCc1ccc(Cl)cc1)c1ccc2n(c1=O)CCN(CC1(S(=O)(=O)CCCO)CC1)C2=O"
Data returned: 8.55

Data request: Please report the recorded pIC50 for "CN(CCN1CCn2c(c(CO)cc(C(=O)NCc3ccc(Cl)cc3)c2=O)C1=O)S(C)(=O)=O" .
Data returned: 6.46

Data request: I have this compound here, "O=C(NCc1ccc(Cl)cc1)c1ccc2n(c1=O)CCN(CC1(S(=O)(=O)C3(CO)CC3)CC1)C2=O" , and I need its recorded pIC50.
Data returned: 9.52

Data request: Which pIC50 is listed for "CN(C(C)(C)C)S(=O)(=O)C1(CN2CCn3c(ccc(C(=O)NCc4ccc(C#N)cc4)c3=O)C2=O)CC1" ?
Data returned: 8.96

Data request: Requested field: pIC50. Item: "CN(C1(CN2CCn3c(c(F)cc(C(=O)NCc4ccc(Cl)cc4)c3=O)C2=O)CC1)S(C)(=O)=O"
Data returned: 6.76

Data request: Look at this compound and give its reported pIC50. "N#Cc1ccc(CNC(=O)c2ccc3n(c2=O)CCN(CC2(S(=O)(=O)CCCO)CC2)C3=O)cc1"
Data returned: 8.33

---
Data request: Which pIC50 value is on record for N#Cc1ccc(CNC(=O)c2ccc3n(c2=O)CCN(CC2(S(=O)(=O)C4CC4(F)F)CC2)C3=O)cc1Cl (stereo not drawn) ?
Data returned: 8.77

Data request: Would you kindly share the measured pIC50 for "CC(=O)N(C)C1(CN2CCn3c(ccc(C(=O)NCc4ccc(Cl)cc4)c3=O)C2=O)CC1" ?
Data returned: 6.60
